So I've got a bunch of compounds here, and I need their inhibition at 30 µM values.
- System: guinea pig ileum
- measurement notes: antigen-induced contraction of ileum from sensitized guinea pigs
- stated conditions: Cavia porcellus, read-out: Percentage Inhibition, 30 μM compound, n = 3-4
Express the result in % but write the number alone.

q: Field: inhibition at 30 µM (guinea pig ileum). Entry: CC1(C)O[C@@H]2C3C(CC[C@]4(C)C(=O)CCC34)[C@@]3(C)CC[C@H](O)CC3[C@H]2O1 (stereo partly shown) [Compound 331]
a: 14.5

q: Request: inhibition at 30 µM, test system guinea pig ileum, entry C[C@@]12CCCC1C1C(CC2)[C@@]2(C)CC[C@H](O)CC2[C@@H](O)[C@@H]1O (stereo partly shown) [Compound 351]
a: 43.6

q: Query for guinea pig ileum: what inhibition at 30 µM does the record show for CC[C@H]1CCC2C3C(CC[C@@]21C)[C@@]1(C)CC[C@@H](O)CC1[C@@H](O)[C@@H]3O (stereo partly shown) [Compound 339] ?
a: 40.6

q: Query the reported inhibition at 30 µM for guinea pig ileum; item: C/C=C1/CCC2C3C(CC[C@]12C)[C@@]1(C)CCCCC1[C@@H](O)[C@@H]3O (stereo partly shown) [Compound 346]
a: 62.5

q: Item: C/C=C1/CCC2C3C(CC[C@]12C)[C@@]1(C)CC[C@@H](O)CC1[C@H]1OC(C)(C)O[C@H]31 (stereo partly shown) [Compound 338] Test system: guinea pig ileum Read-out: inhibition at 30 µM Value: ?
a: 64

q: Form: Entry = C/C=C1/CCC2C3C(CC[C@]12C)[C@@]1(C)CC[C@@H](O)CC1[C@@H](O)[C@@H]3O (stereo partly drawn) [Compound 330, 3α,6α,7β-trihydroxy-17(20)-pregnene] | System = guinea pig ileum | inhibition at 30 µM = ____
a: 70

q: Request body: readout inhibition at 30 µM, system guinea pig ileum, query C=C1CCC2C3C(CC[C@]12C)[C@@]1(C)CC[C@H](O)CC1[C@@H](O)[C@@H]3O (stereo partly shown) [Compound 342] . Return the value.
a: 28.3

* * *

- System: passively sensitized rat mast cells (RBL-2H3)
- measurement notes: antigen-induced release of hexosaminidase from RBL-2H3 cells
- Type: cell-based
- stated conditions: Rattus norvegicus, RBL-2H3, 25 μM compound; antigen-induced hexosaminidase release; read-out: Percentage Inhibition (mean) RBL-2H3 Cells
I'd appreciate it if you could supply inhibition at 25 µM values for the items below.
// note: answer is a bare numeric in %

q: Param readout= inhibition at 25 µM; system= passively sensitized rat mast cells (RBL-2H3); entry= C[C@]12CC[C@H](O)CC1[C@@H](O)[C@H](O)C1C2CC[C@@]2(C)C1CCC21OCCO1 (some centres unmarked) [Compound 328] ; returns value.
a: 34.3

q: Lookup: inhibition at 25 µM / passively sensitized rat mast cells (RBL-2H3) / CC(C)[C@H]1CC(=O)OC([C@@H](C)C2CC(=O)C3C4CCC5C[C@@H](O)CC[C@]5(C)C4CC[C@@]32C)C1 (some centres unmarked) [Compound 266]
a: -12.5

q: Reported inhibition at 25 µM for passively sensitized rat mast cells (RBL-2H3), given C/C=C1/CCC2C3C(CC[C@]12C)[C@@]1(C)CC[C@H](O)CC1[C@@H](O)[C@@H]3O (some centres unmarked) [Compound 333] ?
a: 69

q: I'm curious: which inhibition at 25 µM was measured for C=C1CCC2C3C(CC[C@]12C)[C@@]1(C)CC[C@H](O)CC1[C@@H](O)[C@@H]3O (some centres unmarked) [Compound 342] tested on passively sensitized rat mast cells (RBL-2H3)?
a: 57

q: I'm curious: which inhibition at 25 µM was measured for CC[C@H]1CCC2C3C(CC[C@@]21C)[C@@]1(C)CC[C@@H](O)CC1[C@@H](O)[C@@H]3O (some centres unmarked) [Compound 339] tested on passively sensitized rat mast cells (RBL-2H3)?
a: 79

q: Give passively sensitized rat mast cells (RBL-2H3) inhibition at 25 µM for CC(C)C1CC(O)OC(C(C)C2CCC3C4C(CC[C@]23C)[C@@]2(C)CC[C@@H](O)CC2[C@@H](O)[C@@H]4O)C1 (some centres unmarked) [Compound 306]
a: 40.5

q: Request: inhibition at 25 µM, test system passively sensitized rat mast cells (RBL-2H3), entry C[C@@]12CCCC1C1C(CC2)[C@@]2(C)CC[C@H](O)CC2[C@@H](O)[C@@H]1O (some centres unmarked) [Compound 351]
a: 33.6

q: Quick check: inhibition at 25 µM on passively sensitized rat mast cells (RBL-2H3), item C/C=C1/CCC2C3C(CC[C@]12C)[C@@]1(C)CCC(=O)CC1[C@@H](O)[C@@H]3O (some centres unmarked) [Compound 335] ?
a: 56

q: passively sensitized rat mast cells (RBL-2H3) / inhibition at 25 µM / C/C=C1/CCC2C3C(CC[C@]12C)[C@@]1(C)CCCCC1[C@@H](O)[C@@H]3O (some centres unmarked) [Compound 346] : value?
a: 16

q: Field: inhibition at 25 µM (passively sensitized rat mast cells (RBL-2H3)). Entry: C[C@H]1CCC2C3C(CC[C@@]21C)[C@@]1(C)CC[C@H](O)CC1[C@@H](O)[C@@H]3O (some centres unmarked) [Compound 343]
a: 52

q: What value of inhibition at 25 µM on passively sensitized rat mast cells (RBL-2H3) does CC(=O)O[C@@H]1C2C(CC[C@@]3(C)C2CCC32OCCO2)[C@@]2(C)CC[C@H](O)CC2[C@H]1OC(C)=O (some centres unmarked) [Compound 322] have?
a: 25.6

* * *

- Tested on: guinea pig ileum
- measurement notes: antigen-induced contraction of ileum from sensitized guinea pigs
- stated conditions: Cavia porcellus, read-out: Percentage Inhibition, 30 μM compound, n = 3-4
Label rule, in plain words: inhibition at 30 µM of 60% and up is condition met, under 60% is condition not met.

q: Could you please find out whether C/C=C1/CCC2C3C(CC[C@]12C)[C@@]1(C)CCC(=O)CC1[C@@H](O)[C@@H]3O (some centres unmarked) has inhibition at 30 µM that meets 60% or exceeds it?
a: condition not met

q: Assess whether reported inhibition at 30 µM for C/C=C1/CCC2C3CCC4C[C@@H](O)CC[C@]4(C)C3CC[C@]12C (some centres unmarked) sits at 60% or higher.
a: condition not met

q: Dear colleague, could you confirm whether C/C=C1/CCC2C3C(CC[C@]12C)[C@@]1(C)CC[C@@H](Cl)CC1[C@H]1OC(C)(C)O[C@H]31 (some centres unmarked) has inhibition at 30 µM at or above 60%?
a: condition met

q: Exam item: decide whether the reported inhibition at 30 µM for C[C@]12CCC(=O)C=C1[C@@H](O)[C@H](O)C1C2CC[C@]2(C)C(=O)CCC12 (some centres unmarked) is at least 60%.
a: condition not met

q: Tell me whether inhibition at 30 µM is at least 60% here: C[C@H]1CCC2C3C(CC[C@@]21C)[C@@]1(C)CC[C@H](O)CC1[C@@H](O)[C@@H]3O (some centres unmarked)
a: condition not met

q: Dear colleague, could you confirm whether C/C=C1/CCC2C3C(CC[C@]12C)[C@@]1(C)CC[C@H](O)CC1[C@@H](O)[C@@H]3O (some centres unmarked) has inhibition at 30 µM at or above 60%?
a: condition met

q: Check this compound for inhibition at 30 µM at or above 60%: CC(C)[C@H]1CC(=O)OC([C@@H](C)C2CC(=O)C3C4CCC5C[C@@H](O)CC[C@]5(C)C4CC[C@@]32C)C1 (some centres unmarked)
a: condition not met

q: Is inhibition at 30 µM for CC[C@H]1CCC2C3C(CC[C@@]21C)[C@@]1(C)C[C@@H](O)C(O)CC1[C@@H](O)[C@@H]3O (some centres unmarked) at or above 60%?
a: condition not met

q: Hello, I need to know if CC[C@H]1CCC2C3C(CC[C@@]21C)[C@@]1(C)CC[C@@H](O)CC1[C@H]1OC(C)(C)O[C@H]31 (some centres unmarked) has measured inhibition at 30 µM not below 60%. Thanks!
a: condition not met

q: API: above_or_equal(metric=inhibition at 30 µM, cutoff=60%) for item C/C=C1/CCC2C3C(CC[C@]12C)[C@@]1(C)CC[C@@H](Cl)CC1[C@@H](O)[C@@H]3O (some centres unmarked)
a: condition not met

* * *

Provide the reported inhibition at 25 µM of each item.
- System: passively sensitized rat mast cells (RBL-2H3)
- measurement notes: antigen-induced release of hexosaminidase from RBL-2H3 cells
- Assay type: cell-based
- stated conditions: Rattus norvegicus, RBL-2H3, 25 μM compound; antigen-induced hexosaminidase release; read-out: Percentage Inhibition (mean) RBL-2H3 Cells
Lab book: enter the figure in %, no units written.

q: Reported inhibition at 25 µM for CC[C@H]1CCC2C3C(CC[C@@]21C)[C@@]1(C)C[C@@H](O)C(O)CC1[C@@H](O)[C@@H]3O (stereo partly drawn) : what is it?
a: 76

q: Reported inhibition at 25 µM, molecule C/C=C1/CCC2C3C(CC[C@]12C)[C@@]1(C)CC[C@@H](O)CC1[C@@H](O)[C@@H]3O (stereo partly drawn) [Compound 330, 3α,6α,7β-trihydroxy-17(20)-pregnene] : ____
a: 59

q: Give the measured inhibition at 25 µM of C/C=C1/CCC2C3C(CC[C@]12C)[C@@]1(C)CC[C@@H](Cl)CC1[C@@H](O)[C@@H]3O (stereo partly drawn) .
a: 44
